- PROTOCOL_DETAILS: in vitro
- MEASUREMENT_PARAMETERS: human, hela cells, % viability
Recorded viability at 28.5 h, 10 µM for the following compounds
READOUT_TYPE: viability at 28.5 h, 10 µM (%)

{"COMPOUND": "O=C(O)CCc1nc(-c2ccncc2)no1", "READOUT_TYPE": "viability at 28.5 h, 10 µM", "NUMBER": 98.7}
{"COMPOUND": "CCOC(=O)c1ccc2ncc3c(=O)nc(N)sc3c2c1", "READOUT_TYPE": "viability at 28.5 h, 10 µM", "NUMBER": 83.7}
{"COMPOUND": "O=C(CSCc1cccc(Cl)c1)Nc1cccnc1", "READOUT_TYPE": "viability at 28.5 h, 10 µM", "NUMBER": 95.9}
{"COMPOUND": "CCOC(=O)C1CCN(Cc2cccs2)CC1", "READOUT_TYPE": "viability at 28.5 h, 10 µM", "NUMBER": 86.3}
{"COMPOUND": "Cc1cccc(N2CCN(C(=O)C3CCN(Cc4cccc(OCc5ccccc5)c4)CC3)CC2)c1C [CBK264328G]", "READOUT_TYPE": "viability at 28.5 h, 10 µM", "NUMBER": 94.3}
{"COMPOUND": "CC(C)c1ccc(/C=C/C(=O)NC2CC2)cc1", "READOUT_TYPE": "viability at 28.5 h, 10 µM", "NUMBER": 105}
{"COMPOUND": "CCOC(=O)C1CCN(C(=O)c2cccnc2NCc2ccc3c(c2)OCO3)CC1", "READOUT_TYPE": "viability at 28.5 h, 10 µM", "NUMBER": 118}
{"COMPOUND": "CCc1ccc(OCCNc2cc(N3CCN(CCO)CC3)ccc2[N+](=O)[O-])cc1", "READOUT_TYPE": "viability at 28.5 h, 10 µM", "NUMBER": 91.7}
{"COMPOUND": "COCOc1ccc(-c2ncc(OCCN3CCOCC3)nc2N)cc1", "READOUT_TYPE": "viability at 28.5 h, 10 µM", "NUMBER": 87.7}
{"COMPOUND": "COc1nc(N)nc2c1ncn2C1OC(CO)C(O)C1O (stereo not drawn)", "READOUT_TYPE": "viability at 28.5 h, 10 µM", "NUMBER": 91.6}
{"COMPOUND": "O=C(N[C@@H]1CNCCC[C@H]1O)c1ccc(OCc2ccccc2)cc1", "READOUT_TYPE": "viability at 28.5 h, 10 µM", "NUMBER": 100}
{"COMPOUND": "CCOc1ccc(C(C)(N)C(=O)O)cc1 (stereo not drawn)", "READOUT_TYPE": "viability at 28.5 h, 10 µM", "NUMBER": 121}
{"COMPOUND": "O=C(NCCOc1ccccc1Cl)NC(=O)C1CCN(CCOc2ccc(Br)cc2)CC1", "READOUT_TYPE": "viability at 28.5 h, 10 µM", "NUMBER": 84.6}
{"COMPOUND": "Nc1ncc(-c2cc3ccccc3s2)nc1-c1ccc(CCC(=O)O)cc1", "READOUT_TYPE": "viability at 28.5 h, 10 µM", "NUMBER": 98.1}
{"COMPOUND": "O=C(NCC(=O)N1CCCC1c1cccs1)c1cccc(Br)c1 (stereo not drawn)", "READOUT_TYPE": "viability at 28.5 h, 10 µM", "NUMBER": 99.2}
{"COMPOUND": "O=C(O)c1ccc(NC2CCS(=O)(=O)C2)cc1 (stereo not drawn)", "READOUT_TYPE": "viability at 28.5 h, 10 µM", "NUMBER": 82.3}
{"COMPOUND": "NC(=O)CN1CCC(Oc2nccnc2OCc2cccnc2)CC1", "READOUT_TYPE": "viability at 28.5 h, 10 µM", "NUMBER": 107}
{"COMPOUND": "Nc1cccc(-c2cn(C[C@H]3CC4CCN3C[C@@H]4C(=O)NC3CCCCC3)nn2)c1 (stereo partly drawn)", "READOUT_TYPE": "viability at 28.5 h, 10 µM", "NUMBER": 84.2}
{"COMPOUND": "CC(=O)Nc1c(O)nc(SCC(=O)Nc2ccc(C(C)=O)cc2)[nH]c1=O", "READOUT_TYPE": "viability at 28.5 h, 10 µM", "NUMBER": 106}
{"COMPOUND": "COc1ccc(OCCNC(=O)c2ccc(-c3ccc(C(C)=O)s3)nc2N(C)C(C)=O)cc1", "READOUT_TYPE": "viability at 28.5 h, 10 µM", "NUMBER": 95.5}
{"COMPOUND": "COc1ccc(-c2coc3c(C)c4oc(=O)c(CC(=O)O)c(C)c4cc23)cc1", "READOUT_TYPE": "viability at 28.5 h, 10 µM", "NUMBER": 105}
{"COMPOUND": "COc1cc(C=O)ccc1OC(=O)c1nsc(Cl)c1Cl", "READOUT_TYPE": "viability at 28.5 h, 10 µM", "NUMBER": 89.1}
{"COMPOUND": "CN(Cc1cn(-c2ccccc2)nc1-c1ccccc1)C(=O)CCc1n[nH]c(=S)[nH]c1=O", "READOUT_TYPE": "viability at 28.5 h, 10 µM", "NUMBER": 102}
{"COMPOUND": "COc1cccc2cc(C(=O)NCCCN3CCN(C)CC3)oc12", "READOUT_TYPE": "viability at 28.5 h, 10 µM", "NUMBER": 101}
{"COMPOUND": "OCCCNc1nccnc1-c1ccc(F)cc1", "READOUT_TYPE": "viability at 28.5 h, 10 µM", "NUMBER": 109}
{"COMPOUND": "Cc1cc(C)c2c(CC(=O)NCCCN3CCOCC3)coc2c1", "READOUT_TYPE": "viability at 28.5 h, 10 µM", "NUMBER": 96.8}
{"COMPOUND": "CCOC(=O)c1ccoc1C[N+](C)(CC)CC [CBK007022I]", "READOUT_TYPE": "viability at 28.5 h, 10 µM", "NUMBER": 83.7}
{"COMPOUND": "CC(C)NC(=O)Cn1c(-c2ccc(F)cc2)cc2cccnc21", "READOUT_TYPE": "viability at 28.5 h, 10 µM", "NUMBER": 107}
{"COMPOUND": "CCC(C)NC1=NC(=O)C(CC(=O)Nc2ccccc2Cl)S1 (stereo not drawn) [CBK059133T]", "READOUT_TYPE": "viability at 28.5 h, 10 µM", "NUMBER": 97.3}
{"COMPOUND": "Cc1ccc(C)c(C2CCCN2C(=O)Cn2cccc(C(=O)NCc3ccccc3)c2=O)c1 (stereo not drawn)", "READOUT_TYPE": "viability at 28.5 h, 10 µM", "NUMBER": 78.5}
{"COMPOUND": "CCN(C(=O)C(C)N(C)Cc1c(C)nn(C2CCS(=O)(=O)C2)c1C)c1cccc2ccccc12 (stereo not drawn)", "READOUT_TYPE": "viability at 28.5 h, 10 µM", "NUMBER": 108}
{"COMPOUND": "Cc1ccc(-c2csc3c(=O)[nH]c(N4CCCC(C(=O)NCC(N)=O)C4)nc23)cc1 (stereo not drawn)", "READOUT_TYPE": "viability at 28.5 h, 10 µM", "NUMBER": 98.3}
{"COMPOUND": "CN(C)S(=O)(=O)c1ccc2c(c1)nc1n2CCC1", "READOUT_TYPE": "viability at 28.5 h, 10 µM", "NUMBER": 71.4}
{"COMPOUND": "CC(C)c1nc(CC(=O)N2CCOC(c3ccc(F)cc3)C2)cs1 (stereo not drawn)", "READOUT_TYPE": "viability at 28.5 h, 10 µM", "NUMBER": 93.9}
{"COMPOUND": "c1ccc(SCCCN2CCNCC2)cc1 [CBK266067G]", "READOUT_TYPE": "viability at 28.5 h, 10 µM", "NUMBER": 100}
{"COMPOUND": "O=C(NCCCN1CCCC(O)C1)N1CCCN(Cc2cccs2)CC1 (stereo not drawn)", "READOUT_TYPE": "viability at 28.5 h, 10 µM", "NUMBER": 82}
{"COMPOUND": "Cc1ccc2c(c1)C1(CC(=O)N(C)C1=O)C(=O)N2CCOc1cccc2c1OCCO2 (stereo not drawn)", "READOUT_TYPE": "viability at 28.5 h, 10 µM", "NUMBER": 99.6}
{"COMPOUND": "CCN(CC)CCNC(=O)c1cccc(Nc2cncc(-c3ccc(O)cc3)n2)c1", "READOUT_TYPE": "viability at 28.5 h, 10 µM", "NUMBER": 96.9}
{"COMPOUND": "O=C(O)CCCn1cc(NC(=O)Cc2ccccc2F)cn1", "READOUT_TYPE": "viability at 28.5 h, 10 µM", "NUMBER": 96.3}
